recorded.endpoint: melting point

Below: 3 compounds and their reported melting point.
Cc1cccc2cc(CN(Cc3cc(C(F)(F)F)cc(C(F)(F)F)c3)c3ncc(N4CCOCC4)cn3)c(N(CC3CC3)CC3CC3)nc12 123 to 124 °C
CCCS(=O)(=O)c1nc2c(C)cccc2cc1CN(Cc1cc(C(F)(F)F)cc(C(F)(F)F)c1)C(=O)OCC 98 °C
CCN(CC(C)(C)C)c1nc2c(cc1CN(Cc1cc(C(F)(F)F)cc(C(F)(F)F)c1)c1nnn(C)n1)c(C)nn2C 72 to 73 °C

Requested field: melting point. Item: CCN(CC1CCCC1)c1nc2ccccc2cc1CN(Cc1cc(C(F)(F)F)cc(C(F)(F)F)c1)c1nnnn1C 110 °C

Look at this compound and give its reported melting point. CCN(CC1CCCC1)c1nc2ccccc2cc1CN(Cc1cc(C(F)(F)F)cc(C(F)(F)F)c1)c1nnn(C)n1 97 °C

Query: melting point; subject: CCOC(=N)N(Cc1cc(C(F)(F)F)cc(C(F)(F)F)c1)Cc1cc2ccccc2nc1N(CC)CC1CCCC1 158 to 160 °C
